The reported numbers originate from patent US6683078B2.

Recorded IC50 for the following compounds
# target: Recombinant human MMP-1 (Homo sapiens, UniProt P03956)
# Construct: made in house; host or cells: transfected HT-1080 cells
# Sequence (P03956 100-469): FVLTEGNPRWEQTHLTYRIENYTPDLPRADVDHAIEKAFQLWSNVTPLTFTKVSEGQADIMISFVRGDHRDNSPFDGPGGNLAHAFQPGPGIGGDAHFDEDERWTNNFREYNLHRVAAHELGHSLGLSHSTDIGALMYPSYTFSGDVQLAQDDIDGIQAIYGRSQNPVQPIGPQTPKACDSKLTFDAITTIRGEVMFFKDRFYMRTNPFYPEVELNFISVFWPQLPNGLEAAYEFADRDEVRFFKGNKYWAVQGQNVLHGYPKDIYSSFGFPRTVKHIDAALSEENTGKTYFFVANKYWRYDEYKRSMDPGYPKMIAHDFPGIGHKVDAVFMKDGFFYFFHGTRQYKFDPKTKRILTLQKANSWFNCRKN
# test-protocol: In vitro MMP inhibition, fluorogenic peptide substrate
# Assay type: biochemical
# condition-summary: Inhibition Table A

Consider the worked cases shown below.
[
  {
    "compound": "O=C(NO)c1ccccc1S(=O)(=O)Cc1ccc(-c2ccccc2)cc1",
    "target": "Recombinant human MMP-1 (Homo sapiens, UniProt P03956)",
    "IC50": "> 10 µM"
  },
  {
    "compound": "CC(O)(C(=O)NO)c1ccccc1S(=O)(=O)N1CCC(c2ccccc2)CC1 (centres unmarked)",
    "target": "Recombinant human MMP-1 (Homo sapiens, UniProt P03956)",
    "IC50": "> 10 µM"
  },
  {
    "compound": "COc1ccc(NS(=O)(=O)c2ccccc2C(=O)NO)cc1",
    "target": "Recombinant human MMP-1 (Homo sapiens, UniProt P03956)",
    "IC50": "> 10 µM"
  },
  {
    "compound": "O=C(NO)c1ccccc1CS(=O)(=O)c1ccc(Oc2ccccc2)cc1",
    "target": "Recombinant human MMP-1 (Homo sapiens, UniProt P03956)",
    "IC50": "> 10 µM"
  }
]

Next, consider the following compound.
In one line, give reported IC50 of the entry O=C(NO)c1ccccc1S(=O)(=O)N1CCC(Oc2ccc(C(F)(F)F)cc2)CC1 . > 10 µM

###

Listing of entries alongside the reported pIC50.
# target: Recombinant human MMP-3 (Homo sapiens)
# Sequence (P08254 100-477): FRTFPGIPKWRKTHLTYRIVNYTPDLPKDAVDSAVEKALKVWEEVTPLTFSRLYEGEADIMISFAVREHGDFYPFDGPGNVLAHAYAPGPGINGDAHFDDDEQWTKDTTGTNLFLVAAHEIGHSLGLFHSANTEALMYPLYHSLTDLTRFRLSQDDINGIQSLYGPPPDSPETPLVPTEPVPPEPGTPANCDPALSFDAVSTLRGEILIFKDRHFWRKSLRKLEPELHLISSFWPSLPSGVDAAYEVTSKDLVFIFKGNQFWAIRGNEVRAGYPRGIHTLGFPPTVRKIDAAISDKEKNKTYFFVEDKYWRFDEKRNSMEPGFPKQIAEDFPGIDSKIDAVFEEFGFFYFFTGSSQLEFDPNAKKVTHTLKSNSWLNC
# test-protocol: In vitro MMP inhibition, fluorogenic peptide substrate
# condition-summary: Table B
Entry type: numeric. Quantity: pIC50, the -log10 of concentration in molar units.

Consider the following illustrative entries.
[
  {
    "compound": "COc1ccc(-c2ccc(OC3CCN(S(=O)(=O)c4ccc(OC)c(OC)c4C(=O)NO)CC3)cc2)cc1OC [Example 27]",
    "target": "Recombinant human MMP-3 (Homo sapiens)",
    "meas-value": 7.00
  },
  {
    "compound": "CCCCOc1ccc(N2CCN(S(=O)(=O)c3ccc(OC)c(OC)c3C(=O)NO)CC2)cc1F [Example 25]",
    "target": "Recombinant human MMP-3 (Homo sapiens)",
    "meas-value": 6.53
  }
]

Please find the next compound below.
Give Recombinant human MMP-3 (Homo sapiens) pIC50 for the following compound: COc1ccc(S(=O)(=O)N2CCN(c3ccc(OC(F)(F)F)cc3)CC2)c(C(=O)NO)c1OC [Example 26] 5.84

###

# target: Recombinant human MMP-14 (Homo sapiens)
# test-protocol: In vitro MMP inhibition, fluorogenic peptide substrate
# condition-summary: Table B
assay-readout: IC50 (nM)
Use nM as the unit, but write only the number.

[
  {
    "smiles-entry": "COc1ccc(S(=O)(=O)N2CCN(c3ccc(OC(F)(F)F)cc3)CC2)c(C(=O)NO)c1OC",
    "unit-abbreviation": "nM",
    "IC50": 416
  }
]

Consider now this further compound.
Give measured IC50 for COc1ccc(-c2ccc(OC3CCN(S(=O)(=O)c4ccc(OC)c(OC)c4C(=O)NO)CC3)cc2)cc1OC (Recombinant human MMP-14 (Homo sapiens)). 1700

###

# target: Recombinant human MMP-13 (Homo sapiens)
# Construct: made in house; host or cells: baculovirus / insect cells
# test-protocol: In vitro MMP inhibition, fluorogenic peptide substrate
# Format: biochemical
# condition-summary: Inhibition Table A
assay-readout: pIC50
Please express pIC50 as -log10 of the molar concentration.

As a guide, the following entries are already answered.
[
  {
    "compound": "O=C(NO)c1ccccc1S(=O)(=O)N1CCC(Oc2ccc(C(F)(F)F)cc2)C1 (stereo not shown) [Example 17]",
    "meas-value": 5.70
  },
  {
    "compound": "O=C(NO)c1ccccc1S(=O)(=O)N1CCC(Cc2ccccc2)CC1 [Example 3]",
    "meas-value": 6.00
  },
  {
    "compound": "O=C(NO)c1ccccc1S(=O)(=O)N1CCC(OCc2ccc(C(F)(F)F)cc2)CC1 [Example 14]",
    "meas-value": 6.05
  }
]

Retrieve pIC50 measured for O=C(NO)c1ccccc1S(=O)(=O)Nc1ccc(Oc2ccccc2)cc1 [Example 15] and print it. 5.05

Determine from records and report pIC50 for COc1ccc(C(=O)NC2CCN(S(=O)(=O)c3ccccc3C(=O)NO)C2)cc1 (stereo not shown) [Example 11] 5.66

In one line, give reported pIC50 of the entry O=C(NO)c1ccccc1S(=O)(=O)N1CCC(Oc2ccc(OC(F)(F)F)cc2)CC1 [Example 12] . 7.48
